Hello, the source for this data is patent US20220177583A1, in case you need it.

MEASURED_ON: CLDN3/4 endogenously expressed on LS513 and MCF7 cells
EXPERIMENTAL_PROTOCOL: FACS dose curve, labelled mAb, MCF7 cells
MEASURED_ATTRIBUTE: pEC50
Recall that pEC50 is obtained by taking minus log10 of the concentration measured in molar.

Please review the entries below; each comes with its answer.
[[record]]
binder = "AB4 (antibody, V domains shown) VH: QVQLQQSGAELARPGASVKMSCKASGYTFTSYTMHWIKQRPGQGQEWIGYINPSSTYTHYIKKFKDKATLTADKSSSTAYMQLRSLTSEDSAVYYCSRGELGGFAYWGQGTLVTVSA VL: DVVMTQTPLSLPVSLGDQASISCRSSQSLVHSDGNTYLNWYLQKPGQSPKLLIYKVSNRFSGVPDRFSGSGSGTDFTLKIRRVEAEDLGVYFCSQSTHVPYTFGGGTKLEIK"
value_reported = 6.19

[[record]]
binder = "AB2 (antibody, V domains shown) VH: EVKLEESGGGLVQPGGSMKLSCVASGFTFSDYWMNWVRQSPEKGLEWVAQIRLKSDNYATHYAESVKGRFTISRDDSKRSVYLQMNNLRAEDTGTYYCNDGPPSGCWGQGTTLIVSS VL: DIQMTQSPASLSASVGETVTITCRISENIYSYLAWYQQKQGKSPQLLVYNAKILVEGVPSRFSGSGSGTQFSLKINSLQPEDFGNYYCQHHYTVPWTFGGGTKLEIK"
value_reported = 5.30


Moving on to the next binder.
Query pEC50 for AB3 (antibody, V domains shown) VH: EVKLEESGGGLVQPGGSMKLSCVASGFTFSNYWMNWVRQSPEKGLEWVAQIRLKSDNYATHYAESVKGRFTISRDDSKRSVYLQMNNLRAEDTGTYYCNDGPPSGCWGQGTTLIVSS VL: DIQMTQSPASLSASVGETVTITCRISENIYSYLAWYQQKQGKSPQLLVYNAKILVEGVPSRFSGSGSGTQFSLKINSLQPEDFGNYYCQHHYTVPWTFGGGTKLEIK
5.30
